Measured values drawn from the supplement of paper PMC11208160 for this set.

# MEASUREMENT_NOTES: recombinant barcode read abundance after kanamycin selection (control-corrected) (log10(CPM+1)); higher = more efficient recombination; sequences stand for … in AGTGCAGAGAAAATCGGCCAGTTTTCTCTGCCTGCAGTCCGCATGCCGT…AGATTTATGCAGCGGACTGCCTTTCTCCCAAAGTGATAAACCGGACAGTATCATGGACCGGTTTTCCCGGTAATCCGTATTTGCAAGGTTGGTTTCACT; site = the 11-nt target;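 note: IS621 recombinase and bridge RNA in Escherichia coli cells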
PROPERTY_NAME: recombinant barcode read abundance (log10)
Form field (numeric): enter value without unit.

Qu. So what's the measured recombinant barcode read abundance (log10) for this one? GGGGAGCCTTGGGTTCTAACCTGTTGCGG (site GGGGAGCCTCC)
Ans. 2.38

Qu. Next record, please: CATAGTCCTTGGGTTCTAACCTGTTGCCA (site CATAGTCCTTG)
Ans. 0.299

Qu. Next record, please: GTATCAGCTTGGGTTCTAACCTGTTGCCT (site GTATCACCTAG)
Ans. 0.226

Qu. Next record, please: CGATCGCCTTGGGTTCTAACCTGTTGCCT (site CGATCGCCTAG)
Ans. 0.339

Qu. Next record, please: TTCCCTACTTGGGTTCTAACCTGTTGCCT (site TTCCCTACTAG)
Ans. 0.452
